- SYSTEM_TESTED: β2 (trypsin-like activity) of 20S proteasome (Homo sapiens, UniProt Q99436)
Non-standard residues stand in square brackets, D forms with d. Residues, ends and D or L forms follow the SMILES beside them. Nle = CCCC[C@H](N)C(=O)O
READOUT_LABEL: IC50 (µM)
Lab book: enter the figure in µM, no units written.

1) CCCC[C@@H](C=O)NC(=O)[C@H](CC(C)C)NC(=O)[C@H](CC(C)C)NC(C)=O [ALLN] (Ac-Leu-Leu-[Nle]-aldehyde)    5.25

Query compound follows.
Returns the measured IC50 for the input compound. Input: `CC(C)C[C@H](NC(=O)CNC(=O)c1cc(Cl)ccc1Cl)B(O)O` 6.4

* * *

- SYSTEM_TESTED: β1 (caspase-like activity) of 20S proteasome (Homo sapiens, UniProt P28072)
Non-standard residues stand in square brackets, D forms with d. Residues, ends and D or L forms follow the SMILES beside them. Nle = CCCC[C@H](N)C(=O)O
READOUT_LABEL: pIC50
Quick note: pIC50 means taking -log10 of the concentration in moles per liter.

Recorded pIC50 for CCCC[C@@H](C=O)NC(=O)[C@H](CC(C)C)NC(=O)[C@H](CC(C)C)NC(C)=O [ALLN] (Ac-Leu-Leu-[Nle]-aldehyde) with β1 (caspase-like activity) of 20S proteasome (Homo sapiens, UniProt P28072), please? 4.91
